# System: Vero-E6
# procedureSummary: primary screen, phospholipidosis by LipidTOX staining; higher = more effect of the substance
# recordedConditions: 10 µM
About 190 (3.5%) of roughly 5,400 compounds showed an effect of 50% or more. The sample holds strong results, similar compounds and a random draw of the others, so the mix is not that of the screen.
The following compounds are shown together with reported result_ITMP values.
measurementName: result_ITMP (%)

• O=C([O-])CN(CCN(CC(=O)[O-])CC(=O)O)CCN(CC(=O)[O-])CC(=O)O = 0.03
• C[C@H](Cc1ccc(OCC(=O)[O-])cc1)NC[C@H](O)c1cccc(Cl)c1 = -1.85
• Cc1cc(S(=O)(=O)[O-])c2c(C)ccc(C(C)C)cc1-2 = -3.22
• C[C@H](CCC(=O)O)[C@H]1CC[C@H]2[C@@H]3CC[C@@H]4C[C@H](O)CC[C@]4(C)[C@H]3C[C@H](O)[C@]12C = 0.11
• CC1(C)C[C@@H]1C(=O)N/C(=C\CCCCSC[C@H](N)C(=O)[O-])C(=O)O = -1.62
• O[C@@H]1CCCC[C@H]1N1CCC(c2ccccc2)CC1 (racemic) = -4.38
• CO/N=C(\C(=O)N[C@@H]1C(=O)N2C(C(=O)[O-])=C(COC(C)=O)CS[C@H]12)c1csc(N)n1 = -7.3
• Cc1ccccc1N(C)C(=O)c1ccc(S(=O)c2nccs2)c([N+](=O)[O-])c1 (centres unmarked) = 70.1
• CC(=O)O[C@H]1CC[C@@]2(C)C(=CC(=O)[C@@H]3[C@@H]2CC[C@]2(C)C(=O)CC[C@@H]32)C1 = -7.66
• COc1cc2ncnc(Nc3cccc(Cl)c3F)c2cc1OC(=O)N1CCN(C)C[C@H]1C = 10.7
• COc1ccc(Cl)c(Nc2ncnc3cc(OCC4CCN(C)CC4)c(OC)cc23)c1 = 9.6
